- Test system: Viola tricolor (VIOTR)
- Assay Summary: Post-emergence herbicidal action against VIOTR
- Type: in vivo
- Measurement Conditions: 320 g/ha
Post-emergence action against VIOTR in % reference
Endpoint: Post-emergence action against VIOTR in % (%)

INSERT INTO assay_data (compound, assay_system, reading_unit, readout_value) VALUES
  ('O=C(O)COc1nn(-c2ncccc2F)c(-c2ccc(F)nc2)c1Br [Example I-17]', 'Viola tricolor (VIOTR)', '%', 80),
  ('CCOC(=O)[C@@H](C)Oc1nn(-c2ncccc2Cl)c(-c2ccc(F)nc2)c1Br', 'Viola tricolor (VIOTR)', '%', 80),
  ('C[C@@H](Oc1nn(-c2nc(F)ccc2F)c(-c2cncc(F)c2)c1Cl)C(=O)O', 'Viola tricolor (VIOTR)', '%', 80),
  ('COC(=O)CNC(=O)[C@@H](C)Oc1nn(-c2ccccn2)c(-c2cncc(F)c2)c1Br', 'Viola tricolor (VIOTR)', '%', 90),
  ('CSCCOC(=O)COc1nn(-c2ccccn2)c(-c2ccc(F)nc2)c1Br', 'Viola tricolor (VIOTR)', '%', 80),
  ('COC(=O)COc1nn(-c2ncccc2F)c(-c2ccnc(F)c2)c1Br', 'Viola tricolor (VIOTR)', '%', 90),
  ('COC(=O)COc1nn(-c2nc(F)ccc2F)c(-c2cncc(F)c2)c1C1CC1', 'Viola tricolor (VIOTR)', '%', 80),
  ('COC(=O)C(C)NC(=O)C(C)Oc1nn(-c2ccccn2)c(-c2ccc(F)nc2)c1Br (stereo not shown)', 'Viola tricolor (VIOTR)', '%', 80),
  ('COC(=O)[C@@H](C)Oc1nn(-c2nc(F)ccc2F)c(-c2ccc(F)nc2)c1Cl', 'Viola tricolor (VIOTR)', '%', 80),
  ('CCOC(=O)[C@@H](C)Oc1nn(-c2ncccc2F)c(-c2ccc(F)nc2)c1F', 'Viola tricolor (VIOTR)', '%', 80),
  ('COC(=O)C(C)OC(=O)C(C)Oc1nn(-c2ccccn2)c(-c2cncc(F)c2)c1Br (mixture of isomers)', 'Viola tricolor (VIOTR)', '%', 80),
  ('CCOC(=O)[C@@H](C)Oc1nn(-c2ncccc2F)c(-c2cncc(F)c2)c1C1CC1', 'Viola tricolor (VIOTR)', '%', 90),
  ('O=C(O)COc1nn(-c2ncccc2F)c(-c2ccc(F)nc2)c1Br [Example I-08]', 'Viola tricolor (VIOTR)', '%', 80),
  ('COC(=O)[C@@H](C)Oc1nn(-c2ccccn2)c(-c2ccc(Cl)nc2)c1Cl', 'Viola tricolor (VIOTR)', '%', 80),
  ('COC(=O)CNC(=O)[C@@H](C)Oc1nn(-c2ccccn2)c(-c2cncc(F)c2)c1Cl', 'Viola tricolor (VIOTR)', '%', 80),
  ('CCOC(=O)[C@@H](C)Oc1nn(-c2ncccc2F)c(-c2cncc(F)c2)c1Cl', 'Viola tricolor (VIOTR)', '%', 90);
